- target.or.system: CyclinA2/CDK2 (Homo sapiens, UniProt P20248)
- Construct: purchased CRELUX Protein Services
- assay.text: Fluorescence Polarization (FP) competitive binding assay, Cyclin A2/Cdk2;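 further: plates equilibrated two hours at room temperature before polarization reading, IC50 fitted from eight-concentration compound titration curves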
- condition.summary: 8 nM Cyclin A2/Cdk2, 2 nM FAM probe; average of 2-3 independent experiments; read-out: Cyclin A FP IC50
*1 amine or outer side, *2 acyl side, *3 side chain or, on linkers, in order; H or OH if unused. Where a SMILES comes first, the peptide text is derived from it. Bridges are numbered along the chain shown (N, C = ends). [ ]: non-standard residue; d: D form. The star is where a group is joined. X107 = CN([C@@H](Cc1cc(Cl)ccc1-c1ccc(-c2cnn(C)c2)cc1)C(=O)[*:2])[*:1]; X130 = CN([C@@H](Cc1cc(F)ccc1-c1ccn(S(C)(=O)=O)c1)C(=O)[*:2])[*:1]; NMehhhLys(Me) = CN([C@@H](CCCCCCCN(C)[*:3])C(=O)[*:2])[*:1]; NMe(hhhLys) = CN([C@@H](CCCCCCCN[*:3])C(=O)[*:2])[*:1]; cBuCO(3,3-F2-1-CF3) = O=C(C1(C(F)(F)F)CC(F)(F)C1)*; X4 = Cc1ccc(Cl)cc1C[C@@H](C(=O)[*:2])N(C)[*:1]; Pro(trans-4-F) = O=C(O)[C@@H]1C[C@@H](F)CN1; Gly(cPr) = N[C@H](C(=O)O)C1CC1
measurement.label: IC50 (nM)
Give just the number in nM; leave the unit off.

## Input Can you look up IC50 on CyclinA2/CDK2 (Homo sapiens, UniProt P20248) for Cc1ccc(Cl)cc1C[C@H]1C(=O)NCCCCCCC[C@H](N(C)C(=O)[C@@H](NC(=O)[C@@H]2C[C@@H](F)CN2C(=O)C2(C(F)(F)F)CC(F)(F)C2)C2CC2)C(=O)N[C@@H](CC(C)C)C(=O)N1C [Example 270] ({cBuCO(3,3-F2-1-CF3)}-[Pro(trans-4-F)][Gly(cPr)][NMe(hhhLys)]L[X4]; lactam 3-C) ?
## Output 60

## Input Again, but for CC(C)C[C@@H]1NC(=O)[C@@H](N(C)C(=O)[C@@H](NC(=O)[C@@H]2C[C@@H](F)CN2C(=O)C2(C(F)(F)F)CC(F)(F)C2)C2CC2)CCCCCCCN(C)C(=O)[C@H](Cc2cc(Cl)ccc2-c2ccc(-c3cnn(C)c3)cc2)N(C)C1=O [Example 338] ({cBuCO(3,3-F2-1-CF3)}-[Pro(trans-4-F)][Gly(cPr)][NMehhhLys(Me)]L[X107]; lactam 3-C)
## Output 30

## Input Again, but for CC(C)C[C@@H]1NC(=O)[C@@H](N(C)C(=O)[C@@H](NC(=O)[C@@H]2C[C@@H](F)CN2C(=O)C2(C(F)(F)F)CC(F)(F)C2)C2CC2)CCCCCCCN(C)C(=O)[C@H](Cc2cc(F)ccc2-c2ccn(S(C)(=O)=O)c2)N(C)C1=O [Example 306] ({cBuCO(3,3-F2-1-CF3)}-[Pro(trans-4-F)][Gly(cPr)][NMehhhLys(Me)]L[X130]; lactam 3-C)
## Output 20

----------
- Tested on: NCI-H1048 cells
- assay.text: MTT proliferation assay, NCI-H1048;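 further: Dose-response in 96-well plates over 8 or 10 concentration points, with exposure spanning 3-4 cell doublings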
- Format: cell-based
- condition.summary: 5 days compound exposure, 1:3 serial dilution starting at 10 μM
*1 amine or outer side, *2 acyl side, *3 side chain or, on linkers, in order; H or OH if unused. Where a SMILES comes first, the peptide text is derived from it. Bridges are numbered along the chain shown (N, C = ends). [ ]: non-standard residue; d: D form. The star is where a group is joined. X21 = CN([C@@H](Cc1cc(Cl)ccc1-c1ccc(N2CCN3CCOC[C@H]3C2)cc1)C(=O)[*:2])[*:1]; NMehhhLys(Me) = CN([C@@H](CCCCCCCN(C)[*:3])C(=O)[*:2])[*:1]; cBuCO(3,3-F2-1-CF3) = O=C(C1(C(F)(F)F)CC(F)(F)C1)*; Pro(trans-4-F) = O=C(O)[C@@H]1C[C@@H](F)CN1; Gly(cPr) = N[C@H](C(=O)O)C1CC1
measurement.label: GI50
Show the value, then the unit it is measured in.

Below: 2 compounds and their reported GI50.
# compound, measurement.label, result
measured = [
    ("CC(C)C[C@@H]1NC(=O)[C@@H](N(C)C(=O)[C@@H](NC(=O)[C@@H]2C[C@@H](F)CN2C(=O)C2(C(F)(F)F)CC(F)(F)C2)C2CC2)CCCCCCCN(C)C(=O)[C@H](Cc2cc(Cl)ccc2-c2ccc(N3CCN4CCOC[C@H]4C3)cc2)N(C)C1=O [Example 364] ({cBuCO(3,3-F2-1-CF3)}-[Pro(trans-4-F)][Gly(cPr)][NMehhhLys(Me)]L[X21]; lactam 3-C)", "GI50", "10 nM"),
    ("CC(C)C[C@@H]1NC(=O)[C@@H](N(C)C(=O)[C@@H](NC(=O)[C@@H]2C[C@@H](F)CN2C(=O)C2(C(F)(F)F)CCC2)C2CC2)CC=CCCCCN(C)C(=O)[C@H](Cc2cc(Cl)ccc2-c2cnn(C3CC3)c2)N(C)C1=O [Example 81]", "GI50", "40 nM"),
]

Attention now shifts to the item below.
## Input Sample CC(=O)N1C2CCC1CC(c1ccc(F)cc1C[C@H]1C(=O)N(C)CCCCCCC[C@H](N(C)C(=O)[C@@H](NC(=O)[C@@H]3C[C@@H](F)CN3C(=O)C3(C(F)(F)F)CC(F)(F)C3)C3CC3)C(=O)N[C@@H](CC(C)C)C(=O)N1C)C2 (single isomer, unassigned) [Example 59-P2] — what was its GI50?
## Output 60 nM

----------
- Tested on: OVCAR3 cells
- assay.text: MTT proliferation assay, OVCAR3
- Assay type: cell-based
- condition.summary: 5 days compound exposure, 1:3 serial dilution starting at 10 μM
*1 amine or outer side, *2 acyl side, *3 side chain or, on linkers, in order; H or OH if unused. Where a SMILES comes first, the peptide text is derived from it. Bridges are numbered along the chain shown (N, C = ends). [ ]: non-standard residue; d: D form. The star is where a group is joined. ξ: configuration not given here. X160 = CC(=O)N1CC=C(c2ccc(Cl)cc2C[C@@H](C(=O)[*:2])N(C)[*:1])C(C)(C)C1; NMehhhLys(Me) = CN([C@@H](CCCCCCCN(C)[*:3])C(=O)[*:2])[*:1]; X67 = Cc1c(-c2ccc(Cl)cc2C[C@@H](C(=O)[*:2])N(C)[*:1])cnn1C; NMe(hhhLys) = CN([C@@H](CCCCCCCN[*:3])C(=O)[*:2])[*:1]; cBuCO(3,3-F2-1-CF3) = O=C(C1(C(F)(F)F)CC(F)(F)C1)*; Pro(trans-4-F) = O=C(O)[C@@H]1C[C@@H](F)CN1; Gly(cPr) = N[C@H](C(=O)O)C1CC1; ξGly(cPr) = NC(C(=O)O)C1CC1
measurement.label: GI50
Show the value, then the unit it is measured in.

# compound, result
rows = [
    ("CC(=O)N1CC=C(c2ccc(Cl)cc2C[C@H]2C(=O)NCCC=CCCC[C@H](N(C)C(=O)[C@@H](NC(=O)[C@@H]3C[C@@H](F)CN3C(=O)C3(C(F)(F)F)CC(F)(F)C3)C3CC3)C(=O)N[C@@H](CC(C)C)C(=O)N2C)CC1 [Example 286]", "50 nM"),
    ("CC(=O)N1CC=C(c2ccc(Cl)cc2C[C@H]2C(=O)NCCCCCCC[C@H](N(C)C(=O)C(NC(=O)[C@@H]3C[C@@H](F)CN3C(=O)C3(C(F)(F)F)CC(F)(F)C3)C3CC3)C(=O)N[C@@H](CC(C)C)C(=O)N2C)C(C)(C)C1 (stereo partly drawn) [Example 277] ({cBuCO(3,3-F2-1-CF3)}-[Pro(trans-4-F)][ξGly(cPr)][NMe(hhhLys)]L[X160]; lactam 3-C)", "360 nM"),
]

Attention now shifts to the item below.
## Input Sample Cc1c(-c2ccc(Cl)cc2C[C@H]2C(=O)N(C)CCCCCCC[C@H](N(C)C(=O)[C@@H](NC(=O)[C@@H]3C[C@@H](F)CN3C(=O)C3(C(F)(F)F)CC(F)(F)C3)C3CC3)C(=O)N[C@@H](CC(C)C)C(=O)N2C)cnn1C [Example 234] ({cBuCO(3,3-F2-1-CF3)}-[Pro(trans-4-F)][Gly(cPr)][NMehhhLys(Me)]L[X67]; lactam 3-C) — what was its GI50?
## Output 10 nM

----------
- Test system: OVCAR3 cells
- assay.text: MTT proliferation assay, OVCAR3;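 further: compound given as an 8- or 10-point series, one day after plating, with exposure covering roughly 3-4 cell doublings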
- Format: cell-based
- condition.summary: 5 days compound exposure, 1:3 serial dilution starting at 10 μM
*1 amine or outer side, *2 acyl side, *3 side chain or, on linkers, in order; H or OH if unused. Where a SMILES comes first, the peptide text is derived from it. Bridges are numbered along the chain shown (N, C = ends). [ ]: non-standard residue; d: D form. The star is where a group is joined. X73 = CN([C@@H](Cc1cc(Cl)ccc1-c1ccc(N2CCN(Cc3cnn(C)c3)CC2)cc1)C(=O)[*:2])[*:1]; X181 = CN([C@@H](Cc1cc(Cl)ccc1C1=CCN(C(=O)C2CC2)CC1)C(=O)[*:2])[*:1]; X82 = CN([C@@H](Cc1cc(Cl)ccc1-c1cnn(S(C)(=O)=O)c1)C(=O)[*:2])[*:1]; X54 = CN([C@@H](Cc1cc(F)ccc1-c1cnn(C2CCC2)c1)C(=O)[*:2])[*:1]; NMehhhLys(Me) = CN([C@@H](CCCCCCCN(C)[*:3])C(=O)[*:2])[*:1]; NMe(hhhLys) = CN([C@@H](CCCCCCCN[*:3])C(=O)[*:2])[*:1]; Oxane2carbonyl(2R-CF3) = O=C([C@@]1(C(F)(F)F)CCCCO1)*; cBuCO(3,3-F2-1-CF3) = O=C(C1(C(F)(F)F)CC(F)(F)C1)*; Pro(trans-4-F) = O=C(O)[C@@H]1C[C@@H](F)CN1; Gly(cPr) = N[C@H](C(=O)O)C1CC1
measurement.label: GI50
Show the value, then the unit it is measured in.

# compound, GI50
records = [
    ("CC(C)C[C@@H]1NC(=O)[C@@H](N(C)C(=O)[C@@H](NC(=O)[C@@H]2C[C@@H](F)CN2C(=O)C2(C(F)(F)F)CC(F)(F)C2)C2CC2)C/C=C\\CCCCN(C)C(=O)[C@H](Cc2cc(Cl)ccc2-c2cnn(C3CC3)c2)N(C)C1=O", "0.01 µM"),
    ("CC(C)C[C@@H]1NC(=O)[C@@H](N(C)C(=O)[C@@H](NC(=O)[C@@H]2C[C@@H](F)CN2C(=O)[C@@]2(C(F)(F)F)CCCCO2)C2CC2)CCCCCCCN(C)C(=O)[C@H](Cc2cc(Cl)ccc2-c2cnn(S(C)(=O)=O)c2)N(C)C1=O [Example 299] ({Oxane2carbonyl(2R-CF3)}-[Pro(trans-4-F)][Gly(cPr)][NMehhhLys(Me)]L[X82]; lactam 3-C)", "0.01 µM"),
    ("CC(C)C[C@@H]1NC(=O)[C@@H](N(C)C(=O)[C@@H](NC(=O)[C@@H]2C[C@@H](F)CN2C(=O)C2(C(F)(F)F)CC(F)(F)C2)C2CC2)CCCCCCCN(C)C(=O)[C@H](Cc2cc(F)ccc2-c2cnn(C3CCC3)c2)N(C)C1=O [Example 96] ({cBuCO(3,3-F2-1-CF3)}-[Pro(trans-4-F)][Gly(cPr)][NMehhhLys(Me)]L[X54]; lactam 3-C)", "0.01 µM"),
    ("CC(C)C[C@@H]1NC(=O)[C@@H](N(C)C(=O)[C@@H](NC(=O)[C@@H]2C[C@@H](F)CN2C(=O)C2(C(F)(F)F)CC(F)(F)C2)C2CC2)CCCCCCCNC(=O)[C@H](Cc2cc(Cl)ccc2C2=CCN(C(=O)C3CC3)CC2)N(C)C1=O [Example 97] ({cBuCO(3,3-F2-1-CF3)}-[Pro(trans-4-F)][Gly(cPr)][NMe(hhhLys)]L[X181]; lactam 3-C)", "0.03 µM"),
    ("CC(C)C[C@@H]1NC(=O)[C@@H](N(C)C(=O)[C@@H](NC(=O)[C@@H]2C[C@@H](F)CN2C(=O)C2(C(F)(F)F)CC(F)(F)C2)C2CC2)CCCCCCCN(C)C(=O)[C@H](Cc2cc(Cl)ccc2-c2ccc(N3CCN(Cc4cnn(C)c4)CC3)cc2)N(C)C1=O [Example 372] ({cBuCO(3,3-F2-1-CF3)}-[Pro(trans-4-F)][Gly(cPr)][NMehhhLys(Me)]L[X73]; lactam 3-C)", "0.01 µM"),
]

## Input Sample CC(C)C[C@@H]1NC(=O)[C@@H](N(C)C(=O)[C@@H](NC(=O)[C@@H]2C[C@@H](F)CN2C(=O)C2(C(F)(F)F)CC(F)(F)C2)C2CC2)CC=CCCCCN(C)C(=O)[C@H](Cc2cc(Cl)ccc2-c2cncnc2)N(C)C1=O — what was its GI50?
## Output 0.14 µM
